# credit: patent US9845306B2

- PROCEDURE_TEXT: Average particle diameter of the liposomes in each preparation (Zetasizer Nano ZS)
- Format: physicochemical
- STUDY_CONDITIONS: preparations of Comparative Examples 1 to 8, made as in Example 118 with apo-b siRNA
OBSERVABLE: average particle diameter of the liposomes in the preparation (nm)

>>> observed_result("CCCCCCCC/C=C\\CCCCCCCCO[C@@H]1CN(Cc2ccccc2)C[C@H]1OCCCCCCCC/C=C\\CCCCCCCC [Compound VI-4, reference compound]")
157.8
>>> observed_result("CCCCCCCC/C=C\\CCCCCCCC(=O)O[C@@H]1CN(C)C[C@H]1OC(=O)CCCCCCC/C=C\\CCCCCCCC [Compound A-4, reference compound]")
131.1
>>> observed_result("CCCCC/C=C\\C/C=C\\CCCCCCCC(=O)OCCN(C)CCOC(=O)CCCCCCC/C=C\\C/C=C\\CCCCC [Compound A-5, reference compound]")
136.4
>>> observed_result("CCCCC/C=C\\C/C=C\\CCCCCCCC(=O)O[C@@H]1CN(C)C[C@H]1OC(=O)CCCCCCC/C=C\\C/C=C\\CCCCC [Compound A-3, reference compound]")
141.0
>>> observed_result("CCCCCCCC/C=C\\CCCCCCCC(=O)OCCN(C)CCOC(=O)CCCCCCC/C=C\\CCCCCCCC [Compound A-6, reference compound]")
139.5
>>> observed_result("CCCCCCCC/C=C\\CCCCCCCC(=O)OCC(C[N+](C)(C)C)OC(=O)CCCCCCC/C=C\\CCCCCCCC.[Cl-] (stereo not shown) [DOTAP, reference compound]")
104.0
>>> observed_result("CCCCC/C=C\\C/C=C\\CCCCCCCCO[C@@H]1CN(Cc2ccccc2)C[C@H]1OCCCCCCCC/C=C\\C/C=C\\CCCCC [Compound VI-3, reference compound]")
167.8
